These data points were gathered from PubChem BioAssay (NCI).

Can you tell me TGI for the items I'm about to list?
Test system: HL-60(TB) leukemia
Assay: NCI tumour cell line growth inhibition, 48 h
Could you give me the number in µM? Just the number is fine.

Would you mind telling me what TGI value was observed for CC(C)[Si]1(C(C)C)OCC2OC3(CO)C(Oc4nc(=O)ccn43)C2O[Si](C(C)C)(C(C)C)O1 (stereo unspecified) ?
27.1

Reported TGI, compound COc1ccc(-c2cc(/C=C/C(=O)c3ccc(OC)c(OC)c3)[nH]n2)cc1 : ____
6.4

Tell me the measured TGI of N=C1C(=N)c2ccccc2-c2ccccc21.N=C1C(=N)c2ccccc2-c2ccccc21.N=C1C(=N)c2ccccc2-c2ccccc21.[Cl-].[Ru+2] , please.
3.76

I would be grateful if you could share the reported TGI for O=C(Nc1cc(C(F)(F)F)ccc1Cl)c1cccc(NC2=C(Cl)C(=O)N(Cc3ccccc3)C2=O)c1 .
9.23

Report TGI for CC1=C(/C=C/C(C)=C/C=C/C(C)=C/C(=O)OC2CC(n3cc(F)c(=O)[nH]c3=O)OC2CO)C(C)(C)CCC1 (stereo unspecified) please.
7.37

# TGI lookup, item COc1ccc(C[C@H]2COC(=O)[C@@H]2Cc2cccc(Br)c2)cc1OC
38.6

Item Cn1c2ccccc2c(=O)c2cccc(C(=O)NC(CS)C(=O)O)c21 (stereo unspecified) has what recorded TGI?
38.9

What value of TGI has been recorded for this entry: Cc1c2cccc-2c(OCCO)cc2c3ccccc3n(C)c12
7.19

Given the entry CSc1ccsc1-c1sc(-c2cc(SC)c(-c3sc(-c4cc(SC)c(-c5sccc5SC)s4)cc3SC)s2)cc1SC , report its measured TGI.
8.9

I'd like to know its TGI. The compound in question is O=[P@@]1(c2ccccc2)O[C@H](COCc2ccccc2)[C@@H](OCc2ccccc2)[C@H](OCc2ccccc2)[C@H]1NCc1ccccc1
6.09

Quick one: TGI of CCCCC/C=C1\CCC(CN(C)C)C1=O (stereo unspecified) ?
30.3

State the recorded TGI for this entry: Cc1cc(C(F)(F)F)cc(-n2nc(NS(=O)(=O)c3cc(C)c(Cl)cc3S)nc2N)n1
77.8

Could you tell me which TGI is on file for CN(C)C(=S)Sc1ccc([N+](=O)[O-])cc1[N+](=O)[O-] ?
8.54

I'd like to know its TGI. The compound in question is CC1C=CN(N(C)C)C2=C1C(=O)c1cnccc1C2=O (stereo unspecified)
4.66

Give its TGI value. Item: N#Cc1c(-c2ccc(Cl)cc2)c(C#N)c(=O)n(NS(=O)(=O)c2ccccc2)c1O
41.3

Name the recorded TGI for CN(C)c1ccc(N=Nc2ccccn2)c(O)c1 .
1.46

Suppose we examine the compound O=[N+]([O-])c1ccc(CI)cc1 ; what TGI value has been reported?
5.22
